Assay notes: qHTS assay for small molecules that induce genotoxicity in human embryonic kidney cells expressing luciferase-tagged ATAD5 (AID 651632); further: nearly all actives have a fitted effect of over 15% in size
Conditions used: HEK293T ATAD5-luciferase induction, 16 h; series mostly up to 83.3 µM
Inconclusive results are not listed. Active and inactive are the calls of the source. The call rests on the fitted dose curve; in most records, active means well fitted activation curve with a large enough effect in the repeat runs; inconclusive means weak or mixed curves; inactive means no such curve, though single readings can be large or run the other way. Starred links: 1 amine or outer side, 2 acyl side, 3 side chain; linkers in the order of their positions; H or OH if unused. Positions of bridges follow the written chain, without caps; N, C: chain ends. Non-standard residues stand in square brackets, D forms with d. Residues, ends and D or L forms follow the SMILES beside them. Chains are numbered I, II in the order given. Actinocin(9to1) = Cc1c2oc3c(C)ccc(C(=O)[*:1])c3nc-2c(C(=O)[*:2])c(N)c1=O; NMeV = CN[C@H](C(=O)O)C(C)C; Sar = CNCC(=O)O
Form entry, call: pick from True = active, False = inactive

# example entries with known answers
Returns: the outcome recorded for O=C(O)c1cc(Cl)cc(Cl)c1 in this assay.
False

Returns: the outcome recorded for Cc1cccc2n[nH]nc12 in this assay.
False

Returns: the outcome recorded for CCc1cc(C(C)(C)C)c(O)c(C(C)(C)C)c1 in this assay.
False

Returns: the outcome recorded for CC(C)CCOCc1ccccc1 in this assay.
False

Returns: the outcome recorded for CN1C(=O)c2ccc([N+](=O)[O-])cc2C1=O in this assay.
False

Returns: the outcome recorded for Cc1occc(=O)c1OC(=O)C(C)C in this assay.
False

Others:
Returns: the outcome recorded for [Cl][In]([Cl])[Cl] in this assay.
False

Returns: the outcome recorded for COc1ccc(Cc2cnc(N)nc2N)cc1OC in this assay.
False

Returns: the outcome recorded for CC(C)(C)NCC(O)c1cc(O)cc(O)c1 (centres undefined) in this assay.
False

Returns: the outcome recorded for CCOc1ccc2c(c1)C(C)=CC(C)(C)N2 in this assay.
False

Returns: the outcome recorded for CCCCOCCOC(=O)c1ccccc1C(=O)OCCOCCCC in this assay.
False

Returns: the outcome recorded for CC1COC(=O)O1 (centres undefined) in this assay.
False

Returns: the outcome recorded for CC1=CC(=O)c2ccccc2C1=O in this assay.
False

Returns: the outcome recorded for CCCCCCCCCCCCc1ccccc1O in this assay.
False

Returns: the outcome recorded for BrC1CCC(Br)C(Br)CCC(Br)C(Br)CCC1Br (centres undefined) in this assay.
False

Returns: the outcome recorded for Nc1nc2ccccc2[nH]1 in this assay.
False

Returns: the outcome recorded for OCCOCCN1CCN(C(c2ccccc2)c2ccc(Cl)cc2)CC1 (centres undefined) in this assay.
False

Returns: the outcome recorded for C=C(C)C1CC=C(C)C(OC(C)=O)C1 (centres undefined) in this assay.
False

Returns: the outcome recorded for Cc1cccc(O)c1C in this assay.
False

Returns: the outcome recorded for Cc1c2oc3c(C)ccc(C(=O)N[C@@H]4C(=O)N[C@H](C(C)C)C(=O)N5CCC[C@H]5C(=O)N(C)CC(=O)N(C)[C@@H](C(C)C)C(=O)O[C@@H]4C)c3nc-2c(C(=O)N[C@@H]2C(=O)N[C@H](C(C)C)C(=O)N3CCC[C@H]3C(=O)N(C)CC(=O)N(C)[C@@H](C(C)C)C(=O)O[C@@H]2C)c(N)c1=O (I: T[dV]P[Sar][NMeV] / II: T[dV]P[Sar][NMeV]; ester I:1-I:C, II:1-II:C; linker I:N-II:N via Actinocin(9to1)) in this assay.
False
